Measured values drawn from patent US20220273659A1 for this set.

Let's look at some molecules and their measured IC50.
Target: FMS kinase (Homo sapiens, UniProt P07333)
Construct: purchased Invitrogen (Life Technologies)
Sequence (P07333 20-972): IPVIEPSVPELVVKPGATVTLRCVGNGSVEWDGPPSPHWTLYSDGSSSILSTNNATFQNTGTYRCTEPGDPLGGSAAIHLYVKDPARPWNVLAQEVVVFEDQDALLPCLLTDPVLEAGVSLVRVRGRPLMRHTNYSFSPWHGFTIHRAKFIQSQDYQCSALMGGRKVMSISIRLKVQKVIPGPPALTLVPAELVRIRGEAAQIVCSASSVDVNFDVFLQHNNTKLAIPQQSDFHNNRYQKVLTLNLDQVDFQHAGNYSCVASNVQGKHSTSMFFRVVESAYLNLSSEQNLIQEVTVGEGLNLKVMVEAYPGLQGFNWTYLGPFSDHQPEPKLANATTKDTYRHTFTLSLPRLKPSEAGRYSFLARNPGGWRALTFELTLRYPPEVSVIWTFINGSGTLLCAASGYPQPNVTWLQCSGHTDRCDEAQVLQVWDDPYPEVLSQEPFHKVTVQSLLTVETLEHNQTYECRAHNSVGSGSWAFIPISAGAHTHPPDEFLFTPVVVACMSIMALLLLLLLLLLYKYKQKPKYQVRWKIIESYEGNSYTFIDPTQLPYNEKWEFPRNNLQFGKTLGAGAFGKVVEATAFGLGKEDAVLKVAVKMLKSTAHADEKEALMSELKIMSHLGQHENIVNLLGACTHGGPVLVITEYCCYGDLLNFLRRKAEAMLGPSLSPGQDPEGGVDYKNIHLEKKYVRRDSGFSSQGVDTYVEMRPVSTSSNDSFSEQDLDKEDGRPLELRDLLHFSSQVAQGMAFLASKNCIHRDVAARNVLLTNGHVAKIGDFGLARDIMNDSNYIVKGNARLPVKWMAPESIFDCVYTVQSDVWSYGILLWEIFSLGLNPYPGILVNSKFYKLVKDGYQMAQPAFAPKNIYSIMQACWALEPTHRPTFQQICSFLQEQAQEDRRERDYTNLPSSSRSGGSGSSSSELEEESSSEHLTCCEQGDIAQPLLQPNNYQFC
Experiment: LanthaScreen Eu Kinase Binding Assay (ATP, fluorescent-PolyGT substrate)
Type: biochemical
Just the number please, in nM, no unit attached.

Study these solved cases before continuing.
| MOLECULE | RESULT UNIT | VALUE REPORTED |
| --- | --- | --- |
| N#Cc1cc2cnc(Nc3ccn(C4CCNCC4)c(=O)c3)nc2n(C2CCCC2)c1=O [Compound No. 60] | nM | 18 |
| CC(c1ccccc1)n1c(=O)c(C#N)cc2cnc(Nc3ccc(N4CCN(C)CC4)cc3)nc21 (stereo not drawn) [Compound No. 35] | nM | 7 |
| CN1CCN(S(=O)(=O)c2cccc(Nc3ncc4cc(C#N)c(=O)n(C5CCCC5)c4n3)c2)CC1 [Compound No. 17] | nM | 53 |
| CS(=O)(=O)N1CC(Nc2ncc3cc(C#N)c(=O)n(C4CCCC4)c3n2)C1 [Compound No. 372] | nM | 1800 |
| CC1CCN(c2ccc(Nc3ncc4cc(C#N)c(=O)n(C5CCCC5)c4n3)cc2)CC1 [Compound No. 25] | nM | 13 |
| CS(=O)(=O)N1CCC(Nc2ncc3cc(C#N)c(=O)n(C4CCC(F)(F)C4)c3n2)CC1 (racemic) [Compound No. 345] | nM | 674 |
| N#Cc1cc2cnc(Nc3ccc4c(c3)CCNC4)nc2n(C2CCCC2)c1=O [Compound No. 31] | nM | 1 |
| N#Cc1cc2cnc(Nc3ccc(N4CCN5CCCC5C4)c(F)c3)nc2n(C2CCCC2)c1=O (stereo not drawn) [Compound No. 55] | nM | 0.6 |

Record N#Cc1cc2cnc(Nc3ccc(N4CCNCC4)cc3)nc2n(C2CCCc3ccccc32)c1=O (stereo not drawn) [Compound No. 39] , field IC50: 7

The recorded IC50 for CN1CCN(c2ccc(Nc3ncc4cc(C#N)c(=O)n(Cc5ccccc5)c4n3)cc2)CC1 [Compound No. 32] is 3.5

IC50 recorded for this molecule, CS(=O)(=O)N1CCC(Nc2ncc3cc(C#N)c(=O)n([C@H]4C[C@@H]5CC[C@H]4C5)c3n2)CC1 (racemic) [Compound No. 353] , is 69

IC50 recorded for this molecule, N#Cc1cc2cnc(Nc3ccc(S(N)(=O)=O)cc3)nc2n(C2CCCC2)c1=O [Compound No. 377] , is 27

----------
Molecular target: CDK4 (Homo sapiens, UniProt P11802)
Sequence (P11802 whole entry): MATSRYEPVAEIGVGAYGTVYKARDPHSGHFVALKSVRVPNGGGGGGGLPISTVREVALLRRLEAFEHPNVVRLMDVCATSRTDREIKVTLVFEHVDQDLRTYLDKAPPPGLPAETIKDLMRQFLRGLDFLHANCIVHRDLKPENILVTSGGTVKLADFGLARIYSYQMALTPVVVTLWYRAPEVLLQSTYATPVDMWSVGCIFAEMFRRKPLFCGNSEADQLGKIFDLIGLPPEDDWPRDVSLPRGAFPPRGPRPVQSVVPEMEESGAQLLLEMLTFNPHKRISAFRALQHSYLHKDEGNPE
Sequence (P24385 whole entry partner): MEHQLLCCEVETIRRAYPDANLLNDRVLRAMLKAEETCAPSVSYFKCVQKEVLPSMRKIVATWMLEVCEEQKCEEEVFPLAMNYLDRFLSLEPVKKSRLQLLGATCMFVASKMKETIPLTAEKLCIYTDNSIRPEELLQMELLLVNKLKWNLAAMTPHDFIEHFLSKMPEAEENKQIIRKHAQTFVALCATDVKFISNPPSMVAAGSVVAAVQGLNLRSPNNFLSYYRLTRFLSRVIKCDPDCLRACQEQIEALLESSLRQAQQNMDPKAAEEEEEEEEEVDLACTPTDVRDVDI
Experiment: In vitro kinase inhibition IC50, luminescence (ADP Glo), retinoblastoma substrate
Conditions: read-out: CDK4/D1 IC50
Reported IC50 values for a set of molecules
Lab book: enter the figure in nM, no units written.

| MOLECULE | RESULT UNIT | IC50 |
| --- | --- | --- |
| N#Cc1cc2cnc(Nc3nc(C4CCNCC4)cs3)nc2n(C2CCCC2)c1=O | nM | 26 |
| CN(C)S(=O)(=O)N1CCC(Nc2ncc3cc(C#N)c(=O)n(C4CCCC4)c3n2)CC1 | nM | 22 |
| CN(C)CC(=O)N1CCC(n2cc(Nc3ncc4cc(C#N)c(=O)n(C5CCCC5)c4n3)cn2)CC1 | nM | 58 |
| CS(=O)(=O)N1CCC(Nc2ncc3cc(C#N)c(=O)n([C@H]4C[C@@H]5CC[C@H]4C5)c3n2)CC1 (racemic) [Compound No. 353] | nM | 15 |
| Cn1ccc(S(=O)(=O)N2CCC(Nc3ncc4cc(C(F)F)c(=O)n([C@@H]5C[C@H]6CC[C@@H]5C6)c4n3)CC2)n1 | nM | 17 |

Please turn your attention to the following entry.
Measured IC50 for this entry CN1CCN(c2ccc(Nc3ncc4cc(C#N)c(=O)n(C5CCCC5)c4n3)cc2CO)CC1 on CDK4 (Homo sapiens, UniProt P11802): 1
